# tgt: DJA1 (Homo sapiens, UniProt P31689)
# Construct: made in house
# assay name: Competition ELISA: soluble peptide vs DJA1 binding to immobilized 1097-L
# condition details: 1 μM DJA1, soluble peptide up to 100 μM
# Procedure: HSC70, DJA1 and DJA2 were purified as His-tagged proteins, as described. HSC70 was also amplified by PCR with an N-terminal FLAG tag, inserted into pPROEXHTa (Invitrogen) and purified as described. HSC70 was stored in 100 mM KOAc, 20 mM HEPES-KOH pH 7.5, 5 mM MgOAC2 (buffer G), DJA1 and DJA2 in 500 mM NaCl, 20 mM HEPES-KOH pH 7.5, 5 mM MgOAC2 (buffer H). Avi-tagged CFTR NBD1 was purified as described. […] Affinities were determined separately from binding curves and from competition curves. […]
endpoint name: competition of DJA1 binding to immobilized 1097-L (in words)

>>> experimental_result("493-L: NBD1 15-mer 486-500 (GRISFCSQFSWIMPG; UniProt P13569 486-500, looked up, fragment) [Peptide 493-L]")
"competed poorly"
>>> experimental_result("488-L: NBD1 15-mer 481-495 (KIKHSGRISFCSQFS; UniProt P13569 481-495, looked up, fragment) [Peptide 488-L]")
"competed poorly"

Attribution: paper PMC7060200
